- SYSTEM: stearoyl-CoA desaturase (SCD) (Mus musculus, UniProt P13516)
- Sequence (P13516 whole entry): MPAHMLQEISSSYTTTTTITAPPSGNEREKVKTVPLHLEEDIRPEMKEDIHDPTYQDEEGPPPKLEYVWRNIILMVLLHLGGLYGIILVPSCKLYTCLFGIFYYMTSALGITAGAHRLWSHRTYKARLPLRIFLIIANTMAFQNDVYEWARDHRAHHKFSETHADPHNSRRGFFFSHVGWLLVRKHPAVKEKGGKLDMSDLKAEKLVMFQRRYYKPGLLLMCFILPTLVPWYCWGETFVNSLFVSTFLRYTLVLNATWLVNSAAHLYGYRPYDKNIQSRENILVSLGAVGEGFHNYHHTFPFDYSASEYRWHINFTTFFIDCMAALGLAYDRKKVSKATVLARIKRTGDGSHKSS
- ASSAY TEXT: Stearoyl-CoA desaturase inhibition using mouse liver microsomes (HTS microsomal assay, IC50 follow-up)
- EXPERIMENTAL CONDITIONS: % SCD enzyme activity remaining at 10 μM test compound
MEASURED METRIC: Mouse Microsome 10% remaining @ 10 μM

Look at each compound and report its Mouse Microsome 10% remaining @ 10 μM.
1. CC(C)CCNC(=O)c1ccc(N2CCN(C(=O)c3cnccc3C(F)(F)F)CC2)nn1
2. O=C(NCCc1ccc(F)cc1F)c1ccc(N2CCN(C(=O)c3ccccc3C(F)(F)F)CC2)nn1
3. CC(C)CCNC(=O)c1ccc(N2CCN(C(=O)C(C)CC(F)(F)F)CC2)nn1 (stereo not drawn)
4. CC(C)CCNC(=O)c1ccc(N2CCN(C(=O)CC(C)C(F)(F)F)CC2)nn1 (stereo not drawn)
5. O=C(NCCc1ccccc1)c1ccc(N2CCN(C(=O)c3ccccc3C(F)(F)F)CC2)nn1

["8%", "5%", "19%", "11%", "0%"]

Items follow; give Mouse Microsome 10% remaining @ 10 μM for each.
1. CCOC(=O)CCNC(=O)Nc1ccc(N2CCN(C(=O)c3ccccc3C(F)(F)F)CC2)nn1
2. CC(NC(=O)Nc1ccc(N2CCN(C(=O)c3ccccc3C(F)(F)F)CC2)nn1)c1ccc(F)cc1 (stereo not drawn)
3. O=C(NCCC1CC1)c1ccc(N2CCN(Cc3ccc(Cl)cc3Cl)CC2)nn1
4. CC(C)CCNC(=O)c1ccc(N2CCN(C(=O)c3ccccc3[N+](=O)[O-])CC2)nn1

18%
45%
8%
8%
